Target: EGLN3
Test: cell-based or functional assay
Where no end group is shown, it is not given here.
Let's look at some binders and their measured Activity (%)*.
experimental readout: Activity (%)*

>>> numeric_result("DTDLDLEAMAPYIPADDDFQ [DTDLDLEAMApYIPADDDFQ]")
94.3
>>> numeric_result("DTDLDVEALAPYIPADDDFQ (not fully specified; printed as DTDLDVEALApYIPADDDFQ) [DTDLDVEALApYIPADDDFQ]")
115
>>> numeric_result("DTDLDMEALAPYIPADDDFQ (not fully specified; printed as DTDLDMEALApYIPADDDFQ) [DTDLDMEALApYIPADDDFQ]")
128
>>> numeric_result("DTDLDDEALAPYIPADDDFQ [DTDLDDEALApYIPADDDFQ]")
65
>>> numeric_result("DTDLDTEATAPYIPADDDFQ (not fully specified; printed as DTDLDTEATApYIPADDDFQ) [DTDLDTEATApYIPADDDFQ]")
16.5
>>> numeric_result("DTDLDLEMLFPYIPMDDDFQ (not fully specified; printed as DTDLDLEMLFpYIPMDDDFQ) [DTDLDLEMLFpYIPMDDDFQ]")
59.3
>>> numeric_result("DTDLDYEALAPYIPADDDFQ (not fully specified; printed as DTDLDYEALApYIPADDDFQ) [DTDLDYEALApYIPADDDFQ]")
136
>>> numeric_result("DTDLDLEMLKPYIPMDDDFQ (not fully specified; printed as DTDLDLEMLKpYIPMDDDFQ) [DTDLDLEMLKpYIPMDDDFQ]")
74.5
>>> numeric_result("DTDLDAEAAAPYIPADDDFQ [DTDLDAEAAApYIPADDDFQ]")
7.18
>>> numeric_result("DTDLDLEMLCPYIPMDDDFQ (not fully specified; printed as DTDLDLEMLCpYIPMDDDFQ) [DTDLDLEMLCpYIPMDDDFQ]")
63.1
